Target: human cathepsin F (Homo sapiens, UniProt Q9UBX1)
Sequence (Q9UBX1 271-484): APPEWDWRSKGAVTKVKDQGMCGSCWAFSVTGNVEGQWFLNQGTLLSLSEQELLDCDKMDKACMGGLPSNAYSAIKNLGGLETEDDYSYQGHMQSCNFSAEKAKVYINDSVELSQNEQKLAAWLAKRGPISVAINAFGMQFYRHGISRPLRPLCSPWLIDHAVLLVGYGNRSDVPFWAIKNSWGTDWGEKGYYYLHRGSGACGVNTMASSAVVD
Test: Cathepsin F assay (hCat F)
Type: biochemical
Conditions: Z-Phe-Arg-AMC substrate, pH 5.5, 15 min preincubation; read-out: hCat F (IP (nM))
assay_endpoint: IC50 (nM)

smiles_str	assay_endpoint	recorded_measurement
C[C@@H](C#N)NC(=O)[C@@H]1CCCC[C@H]1c1nc(C(C)(C)CO)sc1-c1ccc(N2CCS(=O)(=O)CC2)cc1	IC50	1040

A: C[C@@H](C#N)NC(=O)[C@@H]1C[C@@H](F)CC[C@H]1c1nc(C(C)(C)C)oc1-c1ccc(N2CCS(=N)(=O)CC2)cc1
B: N#CCNC(=O)[C@@H]1C[C@@H](F)CC[C@H]1c1nc(-c2cncc(F)c2)sc1-c1ccc(N2CCS(=O)(=O)CC2)cc1
stdin: Which one would you say has the larger IC50 value: A , or B ? # reply format: chosen label
stdout: A
